Tested on: Streptococcus pyogenes
experimental protocol: In vitro antibacterial activity against Streptococcus pyogenes ATCC 8668 (S.p.1).
Assay type: functional
measured attribute: log10 of MIC (log10 of the value in µg/mL)

compound	log10 of MIC
CC(=O)NC[C@H]1CN(c2ccc(N3CCN(C(=O)c4cc(Br)no4)CC3)c(F)c2)C(=O)O1	0.00
COc1ccc(-c2cc(CN3CCN(c4ccc(N5C[C@H](CNC(C)=O)OC5=O)cc4F)CC3)on2)cc1OC	0.30
COc1cccc(-c2cc(CN3CCN(c4ccc(N5C[C@H](CNC(C)=O)OC5=O)cc4F)CC3)on2)c1	0.60
COc1cc(CN2CCN(c3ccc(N4C[C@H](CNC(C)=O)OC4=O)cc3F)CC2)on1	0.00
CC(=O)NC[C@H]1CN(c2ccc(N3CCN(C(=O)c4cc(C#N)no4)CC3)c(F)c2)C(=O)O1	-0.60
CC(=O)NC[C@H]1CN(c2ccc(N3CCN(C(=O)c4ccno4)CC3)c(F)c2)C(=O)O1	-0.30
CC(=O)NC[C@H]1CN(c2ccc(N3CCN(Cc4cc(-c5ccc(C)cc5)no4)CC3)c(F)c2)C(=O)O1	0.60
CC(=O)NC[C@H]1CN(c2ccc(N3CCN(C(=O)CO)CC3)c(F)c2)C(=O)O1 [EPEREZOLID]	-0.60
CC(=O)NC[C@H]1CN(c2ccc(N3CCN(C(=O)c4cc(COC(N)=O)no4)CC3)c(F)c2)C(=O)O1	-0.30
CC(=O)NC[C@H]1CN(c2ccc(N3CCN(C(=O)c4cc(C(F)(F)F)no4)CC3)c(F)c2)C(=O)O1	0.00
CC(=O)NC[C@H]1CN(c2ccc(N3CCN(C(=O)c4cc(-c5cccs5)no4)CC3)c(F)c2)C(=O)O1	-0.30
CC(=O)NC[C@H]1CN(c2ccc(N3CCN(Cc4cc(C)no4)CC3)c(F)c2)C(=O)O1	1.20
CN[C@H](CC(C)C)C(=O)N[C@H]1C(=O)N[C@@H](CC(N)=O)C(=O)N[C@H]2C(=O)N[C@H]3C(=O)N[C@H](C(=O)N[C@H](C(=O)O)c4cc(O)cc(O)c4-c4cc3ccc4O)[C@H](O)c3ccc(c(Cl)c3)Oc3cc2cc(c3O[C@@H]2O[C@H](CO)[C@@H](O)[C@H](O)[C@H]2O[C@H]2C[C@](C)(N)[C@H](O)[C@H](C)O2)Oc2ccc(cc2Cl)[C@H]1O [VANCOMYCIN]	-0.60
CC(=O)NC[C@H]1CN(c2ccc(N3CCN(C(=O)c4cc(OCCF)no4)CC3)c(F)c2)C(=O)O1	-0.30
CC(=O)NC[C@H]1CN(c2ccc(N3CCN(Cc4cc(/C=C/c5ccccc5)no4)CC3)c(F)c2)C(=O)O1	0.30
CC(=O)NC[C@H]1CN(c2ccc(N3CCN(C(=O)c4cc(C(=O)N(C)C)no4)CC3)c(F)c2)C(=O)O1	0.00
CC(=O)NC[C@H]1CN(c2ccc(N3CCN(Cc4cc(-c5cccs5)no4)CC3)c(F)c2)C(=O)O1	0.00
CC(=O)NC[C@H]1CN(c2ccc(N3CCN(C(=O)c4cc(C(N)=O)no4)CC3)c(F)c2)C(=O)O1	-0.60
CC(=O)NC[C@H]1CN(c2ccc(N3CCN(C(=O)c4cc(-c5cnsn5)no4)CC3)c(F)c2)C(=O)O1	-0.30
CC(=O)NC[C@H]1CN(c2ccc(N3CCN(C(=O)c4cc(C(=O)O)no4)CC3)c(F)c2)C(=O)O1	1.20
CC(=O)NC[C@H]1CN(c2ccc(N3CCOCC3)c(F)c2)C(=O)O1 [LINEZOLID]	-0.30
CC(=O)NC[C@H]1CN(c2ccc(N3CCN(C(=O)c4cc(-c5csnn5)no4)CC3)c(F)c2)C(=O)O1	-0.30
CC(=O)NC[C@H]1CN(c2ccc(N3CCN(C(=O)c4cc(C)no4)CC3)c(F)c2)C(=O)O1	-0.30
CC(=O)NC[C@H]1CN(c2ccc(N3CCN(Cc4cc(-c5ccc(F)cc5)no4)CC3)c(F)c2)C(=O)O1	0.30
CC(=O)NC[C@H]1CN(c2ccc(N3CCN(Cc4cc(-c5ccc(Cl)cc5)no4)CC3)c(F)c2)C(=O)O1	0.60
CC(=O)NC[C@H]1CN(c2ccc(N3CCN(C(=O)c4cc(COC(=O)N(C)C)no4)CC3)c(F)c2)C(=O)O1	-0.30
CC(=O)NC[C@H]1CN(c2ccc(N3CCN(C(=O)c4cc(Cl)no4)CC3)c(F)c2)C(=O)O1	0.00
CC(=O)NC[C@H]1CN(c2ccc(N3CCN(Cc4cc(-c5ccc(Oc6ccccc6)cc5)no4)CC3)c(F)c2)C(=O)O1	0.00
CC(=O)NC[C@H]1CN(c2ccc(N3CCN(Cc4cc(-c5ccc(C#N)cc5)no4)CC3)c(F)c2)C(=O)O1	0.30
CC(=O)NC[C@H]1CN(c2ccc(N3CCN(Cc4cc(-c5ccccn5)no4)CC3)c(F)c2)C(=O)O1	-0.30
CC(=O)NC[C@H]1CN(c2ccc(N3CCN(C(=O)c4nccs4)CC3)c(F)c2)C(=O)O1	0.00
